B1: TPR t1 (parent)
chain: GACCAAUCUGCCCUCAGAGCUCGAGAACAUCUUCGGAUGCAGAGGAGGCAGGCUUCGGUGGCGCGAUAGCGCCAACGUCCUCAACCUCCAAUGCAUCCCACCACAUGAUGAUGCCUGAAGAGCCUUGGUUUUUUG

- Variants of: B1
- PROTOCOL DETAILS: polymerase ribozyme fitness, log enrichment relative to wild type (log ratio); higher = more active; in vitro selection for triplet polymerase activity
The entries below come with measured polymerase ribozyme fitness (log ratio) values attached.

MUTATION LIST: U9C A29G G58A A90U G110A
polymerase ribozyme fitness (log ratio): -4.22
--
MUTATION LIST: A74C C101G
polymerase ribozyme fitness (log ratio): -2.14
--
MUTATION LIST: G107A A111U
polymerase ribozyme fitness (log ratio): -5.27
--
MUTATION LIST: G10U A95U G128A
polymerase ribozyme fitness (log ratio): -3.44
--
MUTATION LIST: U7A C72A G93C
polymerase ribozyme fitness (log ratio): -0.463
--
MUTATION LIST: U96A C114U
polymerase ribozyme fitness (log ratio): -3.4
--
MUTATION LIST: C28A G45U C72A C115A
polymerase ribozyme fitness (log ratio): -6.12
--
MUTATION LIST: A16G G65U C73G C89A C123A
polymerase ribozyme fitness (log ratio): -7.69
--
MUTATION LIST: C22A G93U
polymerase ribozyme fitness (log ratio): -6.27
--
MUTATION LIST: A84U C101U G122A U132A
polymerase ribozyme fitness (log ratio): -1.15
--
MUTATION LIST: C12G C85G
polymerase ribozyme fitness (log ratio): -1.08
--
MUTATION LIST: C3U C62G U106A G113A
polymerase ribozyme fitness (log ratio): -4.93
--
MUTATION LIST: C40A C85A
polymerase ribozyme fitness (log ratio): -1.95
--
MUTATION LIST: G71U U81A C123A
polymerase ribozyme fitness (log ratio): -1.04
--
MUTATION LIST: C34A G57C
polymerase ribozyme fitness (log ratio): -2.62
--
MUTATION LIST: C49U C115A
polymerase ribozyme fitness (log ratio): -0.871
--
MUTATION LIST: G69C A121U
polymerase ribozyme fitness (log ratio): 0.369
--
MUTATION LIST: G10A A43U G57U U130C
polymerase ribozyme fitness (log ratio): -1.83
--
MUTATION LIST: A41U C89U
polymerase ribozyme fitness (log ratio): -1.32
--
MUTATION LIST: C40U C49G U59A
polymerase ribozyme fitness (log ratio): -1.73
--
MUTATION LIST: A2U C8U G45A C73U A95G G120A
polymerase ribozyme fitness (log ratio): -0.341
--
MUTATION LIST: A43C C85A C101A
polymerase ribozyme fitness (log ratio): -5.53
--
MUTATION LIST: C40U G135U
polymerase ribozyme fitness (log ratio): -1.59
--
MUTATION LIST: C3U C4A
polymerase ribozyme fitness (log ratio): -1.77
--
MUTATION LIST: A2G U116A A121U
polymerase ribozyme fitness (log ratio): -0.583
--
MUTATION LIST: C13U A50U A66G C88U A90U U109A U116C
polymerase ribozyme fitness (log ratio): -5.37
--
MUTATION LIST: C70U C82G C124A U130C
polymerase ribozyme fitness (log ratio): 0.602
--
MUTATION LIST: C8U C12A G42A C70U U92A
polymerase ribozyme fitness (log ratio): -4.6
--
MUTATION LIST: G52A U78C C86A C124G G128A
polymerase ribozyme fitness (log ratio): -1.71
--
MUTATION LIST: C15A C49G
polymerase ribozyme fitness (log ratio): -2.46
--
MUTATION LIST: G42U A95G
polymerase ribozyme fitness (log ratio): -0.388
--
MUTATION LIST: A6U A121C
polymerase ribozyme fitness (log ratio): 1.91
--
MUTATION LIST: U9A C13U G63A C88A G113C U129G U134G
polymerase ribozyme fitness (log ratio): -3.06
--
MUTATION LIST: U14A A29G G113A
polymerase ribozyme fitness (log ratio): -5.5
--
MUTATION LIST: C8G U32G C101U C124A
polymerase ribozyme fitness (log ratio): -4.92
--
MUTATION LIST: G45U C64U
polymerase ribozyme fitness (log ratio): -0.713
--
MUTATION LIST: G60U G117C
polymerase ribozyme fitness (log ratio): -3.52
--
MUTATION LIST: U54A C70G C86U
polymerase ribozyme fitness (log ratio): -3.2
--
MUTATION LIST: G63U A111U
polymerase ribozyme fitness (log ratio): -4.61
--
MUTATION LIST: G42C C56U G69U G93A G120C U131G
polymerase ribozyme fitness (log ratio): -3.67
--
MUTATION LIST: G45U A50U C114A G135A
polymerase ribozyme fitness (log ratio): -5.32
--
MUTATION LIST: C34G C62U C94G A105C U130C
polymerase ribozyme fitness (log ratio): -7.14
--
MUTATION LIST: C3U C53G
polymerase ribozyme fitness (log ratio): -0.501
--
MUTATION LIST: G39A C104U
polymerase ribozyme fitness (log ratio): -0.931
--
MUTATION LIST: C11G G61U U96C
polymerase ribozyme fitness (log ratio): -0.274
--
MUTATION LIST: G57U C72G U96A
polymerase ribozyme fitness (log ratio): -2.83
--
MUTATION LIST: C34A C123A U132C
polymerase ribozyme fitness (log ratio): -2.13
--
MUTATION LIST: G69C G120A
polymerase ribozyme fitness (log ratio): -0.926
--
MUTATION LIST: G47U G69U
polymerase ribozyme fitness (log ratio): -0.915
--
MUTATION LIST: C72A A118U
polymerase ribozyme fitness (log ratio): 0.818
--
MUTATION LIST: C53G G120A
polymerase ribozyme fitness (log ratio): 0.668
--
MUTATION LIST: C53A C86U
polymerase ribozyme fitness (log ratio): -0.0407
--
MUTATION LIST: G61C U87A
polymerase ribozyme fitness (log ratio): -1.83
--
MUTATION LIST: C13U G44U C56A
polymerase ribozyme fitness (log ratio): -1.59
--
MUTATION LIST: G60C A74U U81G C115A
polymerase ribozyme fitness (log ratio): -3.12
--
MUTATION LIST: G71A U106A U133A
polymerase ribozyme fitness (log ratio): -1.42
--
MUTATION LIST: A27G C49G C64U
polymerase ribozyme fitness (log ratio): -2.51
--
MUTATION LIST: C64U C88A
polymerase ribozyme fitness (log ratio): -0.544
--
MUTATION LIST: A5C C11U A43U U59C G60A
polymerase ribozyme fitness (log ratio): -4.12
--
MUTATION LIST: C40U G63U
polymerase ribozyme fitness (log ratio): -1.68
--
MUTATION LIST: A43C G61A C101G
polymerase ribozyme fitness (log ratio): -4.23
--
MUTATION LIST: A50C C73A U78G A90G
polymerase ribozyme fitness (log ratio): -1.98
--
MUTATION LIST: G39C C40A
polymerase ribozyme fitness (log ratio): -3.01
--
MUTATION LIST: G63A G113C U133A
polymerase ribozyme fitness (log ratio): -4.26
--
MUTATION LIST: G110A G120A
polymerase ribozyme fitness (log ratio): -1.23
--
MUTATION LIST: G44C C72U U78G C115G U133G
polymerase ribozyme fitness (log ratio): -1.84
--
MUTATION LIST: C8U G58U A111G U126C
polymerase ribozyme fitness (log ratio): -1.57
--
MUTATION LIST: C11G G77C
polymerase ribozyme fitness (log ratio): -0.624
--
MUTATION LIST: C22A A37U
polymerase ribozyme fitness (log ratio): -5.66
--
MUTATION LIST: G39U C40U G42A C56U
polymerase ribozyme fitness (log ratio): -2.23
--
MUTATION LIST: A2U A16U U32A A41C G69U C89A
polymerase ribozyme fitness (log ratio): -7.42
--
MUTATION LIST: A6C C20A A26C G60A U116C U132C
polymerase ribozyme fitness (log ratio): -7.63
--
MUTATION LIST: C34A C97G U125A
polymerase ribozyme fitness (log ratio): -3.42
--
MUTATION LIST: C64U C89G A91U C97U C115U
polymerase ribozyme fitness (log ratio): -2.63
--
MUTATION LIST: C13A C124U U132A
polymerase ribozyme fitness (log ratio): -1.61
--
MUTATION LIST: C13G A50G G71A U106A C124A G127U
polymerase ribozyme fitness (log ratio): -0.731
--
MUTATION LIST: G10U G39U G77C A100C
polymerase ribozyme fitness (log ratio): -2.58
--
MUTATION LIST: U9G C28U G61U C72G U87A G122A
polymerase ribozyme fitness (log ratio): -1.55
--
MUTATION LIST: C40A C64U C80U
polymerase ribozyme fitness (log ratio): -2.24
--
MUTATION LIST: A46C G57A C62G A121G
polymerase ribozyme fitness (log ratio): -1.34
--
MUTATION LIST: A41C C76U C89U A111C
polymerase ribozyme fitness (log ratio): -1.22
--
MUTATION LIST: C11U C114U U132A
polymerase ribozyme fitness (log ratio): -3.3
--
MUTATION LIST: C49U A75U C79U U116A U130C
polymerase ribozyme fitness (log ratio): -4.3
--
MUTATION LIST: A6C C40U G107U C124U
polymerase ribozyme fitness (log ratio): -4.44
--
MUTATION LIST: A16U G60C G117C U125A
polymerase ribozyme fitness (log ratio): -4.08
--
MUTATION LIST: C13A G52A G128C
polymerase ribozyme fitness (log ratio): -4.3
--
MUTATION LIST: A90C C115A
polymerase ribozyme fitness (log ratio): -0.409
--
MUTATION LIST: G52A G69A A90C U116G G117C A118G
polymerase ribozyme fitness (log ratio): -6.12
--
MUTATION LIST: G10C G42C
polymerase ribozyme fitness (log ratio): -2.24
--
MUTATION LIST: C12U C15U G17A C64U A83C C85A G117U
polymerase ribozyme fitness (log ratio): -2.73
--
MUTATION LIST: A5G C56G
polymerase ribozyme fitness (log ratio): -0.49
